- procedure.text: Reverse-phase thin-layer chromatographic lipophilicity (RF, RM0)
- Type: physicochemical
- conditions.used: Methanol/Water/Hydrochloric acid (conc.); slope of RM = RM0 + bC
List of b values.
property.label: b

>>> numeric_result("Clc1ccc2c(NCCCCCCCCNCC34CC5CC(CC(C5)C3)C4)ccnc2c1")
4.663
>>> numeric_result("Clc1ccc2c(NCCCCCN(CCC34CC5CC(CC(C5)C3)C4)CCC34CC5CC(CC(C5)C3)C4)ccnc2c1")
5.94
>>> numeric_result("Clc1ccc2c(N3CCN(CC45CC6CC(CC(C6)C4)C5)CC3)ccnc2c1")
2.158
>>> numeric_result("CC(CCNCCC12CC3CC(CC(C3)C1)C2)Nc1ccnc2ccccc12 (stereo not drawn)")
3.345
>>> numeric_result("CC(CCNCCC12CC3CC(CC(C3)C1)C2)Nc1ccnc2cc(Cl)ccc12 (stereo not drawn)")
4.124
>>> numeric_result("Clc1ccc2c(NCCNCC34CC5CC(CC(C5)C3)C4)ccnc2c1")
2.812

====

List of RF, Methanol/Water/Hydrochloric acid (conc.), mobile phase II values.
- procedure.text: Reverse-phase thin-layer chromatographic lipophilicity (RF, RM0)
- Assay type: physicochemical
- conditions.used: RP-18 silica; II = 85%MeOH/10%H2O/5%HCl
property.label: RF, Methanol/Water/Hydrochloric acid (conc.), mobile phase II

>>> numeric_result("CC(CCNCCC12CC3CC(CC(C3)C1)C2)Nc1ccnc2cc(Cl)ccc12 (centres unmarked)")
0.62
>>> numeric_result("CC(CCNCC12CC3CC(CC(C3)C1)C2)Nc1ccnc2ccccc12 (centres unmarked)")
0.67
>>> numeric_result("Clc1ccc2c(NCCCCCN(CCC34CC5CC(CC(C5)C3)C4)CCC34CC5CC(CC(C5)C3)C4)ccnc2c1")
0.31
>>> numeric_result("Clc1ccc2c(NCCCN3CCN(CCCNCCC45CC6CC(CC(C6)C4)C5)CC3)ccnc2c1")
0.66
>>> numeric_result("Clc1ccc2c(NCCCCNCC34CC5CC(CC(C5)C3)C4)ccnc2c1")
0.65
>>> numeric_result("Clc1ccc2c(Nc3ccc(NCC45CC6CC(CC(C6)C4)C5)cc3)ccnc2c1")
0.69
>>> numeric_result("Clc1ccc2c(N3CCN(CCC45CC6CC(CC(C6)C4)C5)CC3)ccnc2c1")
0.65
>>> numeric_result("Clc1ccc2c(NCCCN3CCN(CCCNCC45CC6CC(CC(C6)C4)C5)CC3)ccnc2c1")
0.7

====

- procedure.text: Reverse-phase thin-layer chromatographic lipophilicity (RF, RM0)
- Type: physicochemical
- conditions.used: RP-18 silica; III = 80%MeOH/15%H2O/5%HCl
List of RF, Methanol/Water/Hydrochloric acid (conc.), mobile phase III values.
property.label: RF, Methanol/Water/Hydrochloric acid (conc.), mobile phase III

>>> numeric_result("CC(CCNCC12CC3CC(CC(C3)C1)C2)Nc1ccnc2cc(C(F)(F)F)ccc12 (stereo not shown) [Compound 13]")
0.5
>>> numeric_result("Clc1ccc2c(NCCN(CCC34CC5CC(CC(C5)C3)C4)CCC34CC5CC(CC(C5)C3)C4)ccnc2c1 [Compound 9]")
0.11
>>> numeric_result("Clc1ccc2c(NCCCCCCCCNCC34CC5CC(CC(C5)C3)C4)ccnc2c1 [Compound 5]")
0.42
>>> numeric_result("CC(CCNCC12CC3CC(CC(C3)C1)C2)Nc1ccnc2ccccc12 (stereo not shown) [Compound 15]")
0.54
